molecular target: human CD38 on cells (human, UniProt P28907 1-300); assay: cell-based or functional assay
outcomeMeasure: ADCC EC50, Ramos target cells, human NK effector cells, LDH release (ng/mL)
Form entry: value (ng/mL) — number only.

ch38SB13 chimeric anti-CD38 antibody (antibody, V domains shown) VH: QIQLVQSGPELKKPGETVKISCKASGYTLTSYGMNWVKQAPGKGLKWMGWINTYTGEPTYADDFKGRFAFSLETSASTAFLQINNLKNEDTATYFCVRRGFAYWGQGTLVTVSA VL: NIVLTQSPASLAVSLGQRATISCRASESVEIYGNGFMNWFQQKPGQPPKLLIYRASNLESGIPARFSGSGSRTEFTLTIDPVEADDVATYYCQQINEDPFTFGSGTKLEIKR	1.3

-- ask Item under review: ch38SB39 chimeric anti-CD38 antibody (antibody, V domains shown) VH: NVQLVESGGGLVQPGGSRKLSCAASGFTFSNFGMHWVRQAPEKGLEWVAYIRSGSGTIYYSDTVKGRFTISRDNPKNTLFLQMTSLRSEDTAMYYCARSYYDFGAWFAYWGQGTLVTVSA VL: DIVMTQSQKFMSTSVGDRVSVTCKASQNVGTNVAWYQHKPGQSPKIMIYSASSRYSGVPDRFTGSGSGTLFTLTINNVQSEDLAEYFCQQYNSYPLTFGSGTKLEIKR . Reported ADCC EC50, Ramos target cells, human NK effector cells, LDH release?
-- reply 113

-- ask Which measured ADCC EC50, Ramos target cells, human NK effector cells, LDH release value corresponds to ch38SB31 chimeric anti-CD38 antibody (antibody, V domains shown, also called chimeric 38SB31) VH: DVKLVESGGGLVKPGGSLKLSCEASGFTFSSYTLSWVRQTPETRLEWVATISIGGRYTYYPDSVEGRFTISRDNAKNTLYLQMNSLKSEDTAMYYCTRDFNGYSDFWGQGTTLTVSS VL: DTVMTQSHKFISTSVGDRVSITCKASQVVGSAVAWYQQKPGQSPKLLIYWASTRHTGVPDRFTGSGSGTDFTLTISNVQSEDLADYFCQQYNSYPYTFGGGTKLEIKR ?
-- reply 1.2

-- ask I am curious: what ADCC EC50, Ramos target cells, human NK effector cells, LDH release value has been reported for ch38SB30 chimeric anti-CD38 antibody (antibody, V domains shown) VH: QVQLQQSGPELVRPGASVKISCKTSGYAFSGSWMNWVKQRPGQGLEWIGRIYPGDGDIIYNGNFRDKVTLSADKSSNTAYMQLSSLTSVDSAVYFCSRWGTFTPSFDYWGQGTTLTVSS VL: DIVMTQSHKFLSTSVGDRVSITCKASQDVVTAVAWFQQKPGQSPKLLIYSASHRYTGVPDRFTGSGSGTDFTFTIISVQAEDLAVYYCQQHYTTPTTFGGGTKLDFRR ?
-- reply 2.2

src = patent US20110262454A1
